Origin of values: patent US5712148A

Target: hS1a (human betaine/GABA transporter, hBGT) (Homo sapiens, UniProt P48065)
Sequence (P48065 whole entry C10Y): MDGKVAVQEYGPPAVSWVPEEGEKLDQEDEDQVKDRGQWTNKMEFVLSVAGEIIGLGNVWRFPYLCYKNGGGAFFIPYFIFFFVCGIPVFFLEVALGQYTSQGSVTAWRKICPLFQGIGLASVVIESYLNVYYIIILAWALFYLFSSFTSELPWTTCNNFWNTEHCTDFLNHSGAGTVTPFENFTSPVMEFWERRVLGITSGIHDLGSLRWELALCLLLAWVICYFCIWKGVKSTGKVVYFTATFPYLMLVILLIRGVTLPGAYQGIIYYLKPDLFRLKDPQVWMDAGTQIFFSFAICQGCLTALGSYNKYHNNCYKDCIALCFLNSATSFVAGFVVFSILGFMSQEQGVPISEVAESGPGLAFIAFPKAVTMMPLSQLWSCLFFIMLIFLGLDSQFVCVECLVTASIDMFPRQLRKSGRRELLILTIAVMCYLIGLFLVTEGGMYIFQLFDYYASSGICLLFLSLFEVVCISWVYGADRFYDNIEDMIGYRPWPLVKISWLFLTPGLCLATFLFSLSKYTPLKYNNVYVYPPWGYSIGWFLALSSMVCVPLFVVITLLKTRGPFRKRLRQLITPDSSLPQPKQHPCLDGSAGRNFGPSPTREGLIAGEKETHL
Experiment: Inhibition of specific [^3 H]GABA uptake in COS7 (transient) or LMtk- (stable; hS1a-3) cells expressing hS1a
Type: cell-based
Parameters: Translation of a long open reading frame predicts a protein of 614 amino acids with 12 putative transmembrane domains; expressed in transfected cells
Settings: read-out: % Inhibition of specific [^3 H]GABA uptake
Rule: YES for inhibition at 100 µM not less than 20%, NO for anything less.

Q: Hello, I need to know if NCCC(=O)O has measured inhibition at 100 µM not below 20%. Thanks!
Ans: YES

Q: Hello, I need to know if C=C[C@H]1C[N@@]2CC[C@H]1C[C@@H]2[C@@H](O)c1ccnc2ccc(OC)cc12 has measured inhibition at 100 µM not below 20%. Thanks!
Ans: YES

Q: Hello, I need to know if N[C@@H]1CCC[C@H](C(=O)O)C1 (relative stereo) [ACHC, cis-3-aminocyclohexanecarboxylic acid] has measured inhibition at 100 µM not below 20%. Thanks!
Ans: NO

Q: Hello, I need to know if O=C(O)C1=CCCNC1 has measured inhibition at 100 µM not below 20%. Thanks!
Ans: NO

Q: Hello, I need to know if NCC[C@H](N)C(=O)O has measured inhibition at 100 µM not below 20%. Thanks!
Ans: YES

Q: Hello, I need to know if Cc1ccsc1C(=CCCN1CCC[C@@H](C(=O)O)C1)c1sccc1C [(R)-Tiagabine] has measured inhibition at 100 µM not below 20%. Thanks!
Ans: NO

Q: Hello, I need to know if O=C(O)C1CCCNC1 (stereo not shown) has measured inhibition at 100 µM not below 20%. Thanks!
Ans: YES
